Data provenance is PubChem BioAssay AID1985.

- Tested on: S. Typhi PhoP-promoter GFP reporter, fluorescence, 4 h
- ASSAY DETAILS: PhoP regulon inhibitor project modified counter assay, GFP fluorescence readout, dose response (AID 1985)
pIC50: −log10 of the molar value.
RECORDED ENDPOINT: pIC50

• CC[n+]1c(/C=C/N(C)c2ccccc2)n(-c2ccccc2)c2ccc(-c3nc4ccccc4s3)cc21 = 5.05
• CN1C(=O)NC(c2cccc(O)c2)C(C(=O)c2cccs2)C1(O)C(F)(F)F (stereo unspecified) = 4.39
• Cc1cc(NC(=O)c2ccc3[nH]c(C)c(C)c3c2)ccn1 = 3.84
• CN1CCc2nc(SCC(=O)Nc3ccc(Cl)cc3)c(C#N)cc2C1 = 4.17
• CCCCOc1ccc(Br)cc1CSC(=N)N = 4.25
• Clc1ccc(OCCCNCc2ccccc2)c2ccccc12 = 4.47
• CCN1CCN(C(=O)c2cc3cc(F)ccc3[nH]2)CC1 = 4.01
• CN1CCN(C2Cc3cc(Cl)ccc3Sc3cc(F)ccc32)CC1 (stereo unspecified) = 4.43
• Cc1cc(N/N=C/c2ccc(O)cc2)c2cccc(C)c2n1 = 4.09
• COc1ccccc1Nc1c2ccccc2nc2ccccc12 = 4.09
• Cc1[nH]n(-c2ccccc2)c(=O)c1C(c1cccc([N+](=O)[O-])c1O)c1c(C)[nH]n(-c2ccccc2)c1=O = 4.31

* * *

- Test system: S. Typhi PhoP-promoter GFP reporter, fluorescence, 4 h
- ASSAY DETAILS: PhoP regulon inhibitor project modified counter assay, GFP fluorescence readout, dose response (AID 1985)
RECORDED ENDPOINT: IC50

• N/C(=N\N=C/c1ccc(F)cc1)N/N=C\c1ccc(F)cc1 = 75.1 µM
• O=C(C[n+]1cc(-c2ccccc2)n2c1CCC2)Nc1nc(-c2ccc(F)cc2)cs1 = 141 µM
• O=C(N/N=C/c1cc(Br)ccc1O)c1ccccc1Cl = 82.8 µM
• Cc1cc(OCCCCCNCCO)cc(C)c1Cl = 147 µM
• CCn1cc(C(=O)O)c(=O)c2cc(F)c(N3CCN(C(=S)NC(=O)c4ccccc4)CC3)cc21 = 24 µM
• CCCCCC(=O)NC(=S)NNC(=O)CC = 84.2 µM
• CCCCCOc1ccc(CSC(=N)N)cc1[N+](=O)[O-] = 20.9 µM
• CC(C)CCC(CCNCc1ccccn1)c1ccc(Cl)cc1 (stereo unspecified) = 79.4 µM
• CCCCN(CCCC)C(=O)c1cn(CC)c2cc(N3CCN(C)CC3)c(F)cc2c1=O = 7.43 µM
• O=C(C[n+]1cccc(CNC(=O)c2ccc(OC(F)F)cc2)c1)Nc1ccc(SC(F)F)cc1 = 42.1 µM
• Oc1ccccc1Nc1nc(NCc2ccco2)c2ccccc2n1 = 137 µM

* * *

IC50 overview
- System: S. Typhi PhoP-promoter GFP reporter, fluorescence, 4 h
- ASSAY DETAILS: PhoP regulon inhibitor project modified counter assay, GFP fluorescence readout, dose response (AID 1985)
RECORDED ENDPOINT: IC50

- COc1cccc(/C=N/NC(=O)CSCC(=O)Nc2ccccc2)c1O: 92.5 µM
- O=C(N/N=C/c1cc(Br)ccc1O)c1ccncc1: 29.9 µM
- NC1=NC[C@H](c2ccccc2)N1CCc1cc(C(F)(F)F)cc(C(F)(F)F)c1: 55.9 µM
- CCCCCCCCCCOC(=O)Cn1c(COc2cccc(C)c2)[n+](C)c2ccccc21: 15.9 µM
- O=C(N/N=C/c1cc([N+](=O)[O-])ccc1O)c1cccc2cc[nH]c12: 91.6 µM
- Cc1cc(OCC(O)CNC(C)c2ccccc2)ccc1C(C)C (stereo unspecified): 82.6 µM
- O=C(CC(=O)c1c(F)cccc1Cl)c1ccccc1O: 41.4 µM
- C/C(=N\N=C(N)N)c1ccc(Cl)c(Cl)c1: 51.5 µM
- CCn1cc(C(=O)O)c(=O)c2cc(F)c(N3CCN(C(=S)NC(=O)c4cccc(F)c4)CC3)cc21: 27.2 µM
- Nc1nonc1-n1nnc(C(=O)N/N=C/c2cc(Br)ccc2O)c1CSC1=NCCS1: 26 µM
- O=C1NCCN1c1ncc([N+](=O)[O-])s1: 15.9 µM

* * *

- System: S. Typhi PhoP-promoter GFP reporter, fluorescence, 4 h
- ASSAY DETAILS: PhoP regulon inhibitor project modified counter assay, GFP fluorescence readout, dose response (AID 1985)
RECORDED ENDPOINT: IC50

• CCCCCCCNC(=O)C1(CC2CC(c3cccc(Br)c3)=NO2)CCNCC1 (stereo not drawn) = 46 µM
• NC1=C(Br)C(=O)c2ccccc2C1=O = 20.1 µM
• O=C(Cn1cnc2ccccc21)Nc1ccc(SC(F)F)cc1 = 78 µM
• N=c1n(CC(=O)c2ccc(Br)s2)c2ccccc2n1Cc1ccccc1 = 47.2 µM
• COc1c(N2CCN(C(=S)Nc3ccc(F)cc3)C(C)C2)c(F)cc2c(=O)c(C(=O)O)cn(C3CC3)c12 (stereo not drawn) = 0.581 µM
• S=C(Nc1cc(Cl)cc(Cl)c1)NC1CCN(Cc2ccccc2)CC1 = 36.7 µM
• CCCCCCCCCCOC(=O)Cn1c(COc2ccccc2OC)[n+](C)c2ccccc21 = 25.4 µM
• CNC(=S)N1CCN(c2c(F)cc3c(=O)c(C(=O)O)cn(C4CC4)c3c2OC)CC1C (stereo not drawn) = 8.49 µM
• CC1(C)N=C(N)NC(Nc2ccc(Br)cc2)=N1 = 76.4 µM
• CN1CCN(C(c2cccc(Cl)c2)c2ccccc2Cl)CC1 (stereo not drawn) = 107 µM
• O=C1OCCN1/N=C/c1ccc([N+](=O)[O-])o1 = 13.4 µM
• CN1CCN(c2ccc(NC(=O)c3ccc(-c4ccc(Br)cc4)o3)cc2)CC1 = 83.3 µM
• NCCCC[C@H]1CN=C(N)N1CCC12CC3CC(CC(C3)C1)C2 = 131 µM
• O=C1Nc2ccccc2C1=Nc1ccc(S(=O)(=O)Nc2nccs2)cc1 = 90.1 µM
• CCc1ccc(-c2nn(-c3ccccc3)cc2CSC(=N)N)cc1 = 34.1 µM
• CC(=O)OC1=C(O)C(=O)c2ccccc2C1=O = 78.6 µM
• CN(C)CC/C=C1\c2ccccc2Sc2ccc(Cl)cc21 = 98.5 µM
• CNCCCCOc1ccc(C(C)(C)C)cc1Cl = 61 µM
• O=C1CN(/N=C/c2ccc([N+](=O)[O-])o2)C(=O)N1 = 32.2 µM
• COc1cc(CNCCc2ccccc2)cc(Cl)c1OCc1ccccc1 = 78.9 µM
• C1=C(CCNc2ncnc3c2[nH]c2ccccc23)CCCC1 = 115 µM
• COCCCNC(=S)NNC(=O)c1ccccn1 = 25.7 µM
• Cc1c(N2C(=O)/C(=C3\C(=O)N(CC(=O)O)c4ccccc43)SC2=S)c(=O)n(-c2ccccc2)n1C = 91.6 µM

* * *

- System: S. Typhi PhoP-promoter GFP reporter, fluorescence, 4 h
- ASSAY DETAILS: PhoP regulon inhibitor project modified counter assay, GFP fluorescence readout, dose response (AID 1985)
RECORDED ENDPOINT: IC50

- CN(C)[C@@H]1C(=O)C(C(N)=O)=C(O)[C@@]2(O)C(=O)C3=C(O)c4c(O)cccc4[C@@](C)(O)C3[C@H](O)C12 (some centres undefined): 2.99 µM
- C=C1c2cccc(O)c2C(O)=C2C(=O)[C@]3(O)C(O)=C(C(N)=O)C(=O)[C@@H](N(C)C)[C@@H]3[C@@H](O)[C@H]12: 0.376 µM
- COc1cc(/C=C/[N+](=O)[O-])ccc1O: 53.4 µM
- COc1ccc(OCc2n(CC(=O)OC3CC(C)CCC3C(C)C)c3ccccc3[n+]2C)cc1 (centres undefined): 80.6 µM
- COc1ccc(/C=N/Nc2cc(C)nc3c(C)cccc23)cc1: 37.2 µM
- CCn1cc(C(=O)NCCN(C)C)c(=O)c2cc(F)c(N3CCN(C)CC3)cc21: 34 µM
- Cc1cc(C2CCCCC2)n(O)c(=O)c1: 20.9 µM
- C#CCOCCOCCOCCNc1nc(N2CCN(C(=O)[C@H](Cc3cc4ccccc4[nH]3)n3cc([C@@H](N)C(C)CC)nn3)CC2)nc(N2CCN(C(=O)[C@H](Cc3cc4ccccc4[nH]3)n3cc([C@@H](N)CC(C)C)nn3)CC2)n1 (some centres undefined): 54.5 µM
- CN1CCN(CCCN2c3ccccc3Sc3ccc(C(F)(F)F)cc32)CC1: 124 µM
- COc1ccc(N2C(=O)CC(N3CC=C(c4ccccc4)CC3)C2=O)cc1 (centres undefined): 82.4 µM
- O=C(CNC(=O)c1cccc(F)c1)N/N=C/c1ccc([N+](=O)[O-])s1: 23.8 µM
- O=C(N/N=C/c1cc(O)ccc1Br)c1cccnc1: 33.2 µM
- Cc1ccc(NC(=O)c2ccccc2)s1: 91.9 µM
- CN(C)c1ccc(Nc2nc(N)c3ccccc3n2)cc1: 62.4 µM
- Cc1ccc2c(c1)sc(-c1ccc(N(C)C)cc1)[n+]2C: 23.6 µM
- O=C(Cn1cncn1)N/N=C/c1ccccc1O: 103 µM
- Cn1ncnc2c(=O)n(C)c(=O)nc1-2: 0.741 µM
- CN1CCN(CC(=O)N2CCn3c4c(c5cc(C6CCCCC6)ccc53)CCCC42)CC1 (centres undefined): 76.5 µM
- O=C(Oc1c(Cl)cc(Cl)c2cccnc12)c1cccc([N+](=O)[O-])c1: 5.09 µM
- Clc1ccc(CN2C3=NCCN3c3ccccc32)cc1: 89.4 µM
- CN(Cc1ccccc1)CC(O)COc1ccc(CNCc2ccc(Cl)s2)cc1 (centres undefined): 39.1 µM
- Clc1ccc(C[n+]2cc(-c3ccc(Cl)cc3)n3c2CCC3)cc1: 101 µM
- O=C(Nc1ccc([N+](=O)[O-])cc1Cl)c1cc(Cl)ccc1O: 76 µM
- Oc1ccccc1C(Nc1nccs1)c1ccc2cccnc2c1O (centres undefined): 34.8 µM
- c1ccc2c(c1)CSc1sccc1C2=C1CCNCC1: 106 µM
- CC(C)(C)CC(C)(C)c1ccc(OCCOCC[N+](C)(C)Cc2ccccc2)cc1: 34.9 µM
- O=C(c1cccs1)c1no[n+]([O-])c1C(=O)c1cccs1: 14 µM
- O=C(CCC(=O)Nc1ccc(Cl)cc1Cl)N/N=C/c1ccc([N+](=O)[O-])o1: 33.9 µM
- CO[C@@]1(NC(=O)C2SC(=C(C(N)=O)C(=O)O)S2)C(=O)N2C(C(=O)O)=C(CSc3nnnn3C)CS[C@@H]21 (some centres undefined): 13.1 µM
- COc1ccc(C(=O)N/N=C/c2sc3ccccc3c2O)cc1: 44.2 µM
- CO[C@H]1C=CO[C@@]2(C)Oc3c(C)c(O)c4c(O)c(c5c(c4c3C2=O)NC2(CCN(CC(C)C)CC2)N=5)=NC(=O)C(C)=CC=C[C@H](C)[C@H](O)[C@@H](C)[C@@H](O)[C@@H](C)[C@H](OC(C)=O)[C@@H]1C: 4.08 µM
- CCCc1nnc(NC(=O)c2cn(CC)c3cc(N4CCN(C)CC4)c(F)cc3c2=O)s1: 41.2 µM
- CC(C)Cc1c(O)nc(SCC(=O)Nc2ccc3c(c2)CCC3)[nH]c1=O: 95.4 µM
- C#CCOCCOCCOCCNc1nc(N2CCN(C(=O)CCCCCCCCCCNC(=O)Cn3cc(CCCCCN)nn3)CC2)nc(N2CCN(C(=O)CCCCCCCCCCNC(=O)[C@H]([C@@H](C)CC)n3cc(CCCCN=C(N)N)nn3)CC2)n1: 36.8 µM
- Cc1ccc(Nc2c3c(nc4ccccc24)CCC3)cc1: 39.8 µM
- NC1=NC2(CCCCC2)N=C(Nc2ccc(Br)cc2)N1: 28.8 µM
- O=C(NC1CCCCC1)c1ccc([N+](=O)[O-])o1: 39.5 µM
- COc1ccc(C2NCCc3c2[nH]c2ccccc32)cc1COc1ccc(F)cc1 (centres undefined): 78.5 µM
- O=C(O)c1cn(C2CC2)c2cc(N3CCN(S(=O)(=O)c4ccc5c(c4)OCCO5)CC3)c(F)cc2c1=O: 28.2 µM
